Known log10 TGI of a selection of compounds
Tested on: MALME-3M melanoma
EXPERIMENTAL_PROTOCOL: NCI tumour cell line growth inhibition, 48 h
MEASURED_ENDPOINT: log10 TGI (log10 of the value in µM)

COMPOUND: O=C(Nc1ccc(Oc2ccc(Nc3nc4ccccc4s3)cc2)cc1)Nc1ccc(Cl)c(C(F)(F)F)c1
TARGET_UNDER_TEST: MALME-3M melanoma
log10 TGI: 0.58
//
COMPOUND: CCN(Cc1ccc(F)cc1)c1cc(Cl)c(CO)c(Cl)c1
TARGET_UNDER_TEST: MALME-3M melanoma
log10 TGI: 1.56
//
COMPOUND: Cc1ccc(N(Cc2ccccc2)Cc2ccccc2)cc1
TARGET_UNDER_TEST: MALME-3M melanoma
log10 TGI: 1.79
//
COMPOUND: O=C(CCCSc1nc(-c2ccccc2)cc(-c2ccccc2)n1)NO
TARGET_UNDER_TEST: MALME-3M melanoma
log10 TGI: 0.99
//
COMPOUND: CC(=O)/C=C/C1=C(C)CCCC1(C)CC(C)C (stereo unspecified)
TARGET_UNDER_TEST: MALME-3M melanoma
log10 TGI: 1.95

###

System: T-47D breast
EXPERIMENTAL_PROTOCOL: NCI tumour cell line growth inhibition, 48 h

COMPOUND: Cc1cc(C)nc(NS(=O)(=O)c2ccc(NC(=O)c3ccc4nc5ccccc5c(Nc5ccc(S(N)(=O)=O)cc5)c4c3)cc2)n1
TGI: > 100 µM

COMPOUND: CN(C)CCNS(=O)(=O)c1ccc(N)cc1
TGI: > 100 µM

COMPOUND: N=c1nnc2ccc(Cl)cc2n1O
TGI: > 100 µM

COMPOUND: COc1cc(C2CC(C)(O)Oc3cc4c(cc32)OCO4)cc(OC)c1OC (configuration not stated)
TGI: > 100 µM

COMPOUND: CN1CC[C@@H](NC(=O)Nc2ccc(C#N)cc2)C[C@@H]1c1nc2ccccc2[nH]1
TGI: > 100 µM

COMPOUND: CC1(C)OC1COc1c2occc2cc2ccc(=O)oc12 (configuration not stated)
TGI: > 100 µM

COMPOUND: CCOP(=O)(OCC)C(F)(F)c1ccc(CC(NC(=O)OC(C)(C)C)C(=O)O)cc1 (configuration not stated)
TGI: > 10 µM

COMPOUND: CC(C)=CCC[C@@H](C)c1c(O)c(O)c(C)c2nccnc12
TGI: > 79.8 µM

COMPOUND: Nc1nc2c(c(-c3cccc(Cl)c3)n1)COC/C2=C\c1cccc(Cl)c1
TGI: > 100 µM

COMPOUND: COc1cccc(Nc2nc(-c3cccs3)nc3cc(OC)c(OC)cc23)c1
TGI: > 100 µM

COMPOUND: CC(=O)CC(OC(C)=O)C1=CCC2C(CC1C)OC(=O)C2C (configuration not stated)
TGI: > 100 µM

COMPOUND: COC(=O)c1c(C)nc2c1cc(O)c1[nH]c(C)c(C)nc12
TGI: > 100 µM

###

System: MCF7 breast
EXPERIMENTAL_PROTOCOL: NCI tumour cell line growth inhibition, 48 h
MEASURED_ENDPOINT: TGI

COMPOUND: Cc1ccccc1OC(C)C(=O)NN1C(=O)CSC1c1ccccc1 (stereo not given)
MEASURED_ENDPOINT: TGI
ASSAY_RESULT: > 100 µM
//
COMPOUND: Cc1ccc(-c2cc(-c3ccco3)c(C#N)c(=S)n2C2OC(CO)C(O)C(O)C2O)cc1 (stereo not given)
MEASURED_ENDPOINT: TGI
ASSAY_RESULT: > 100 µM
//
COMPOUND: O=C(/C=C/c1ccc(O)cc1)c1ccc(O)cc1
MEASURED_ENDPOINT: TGI
ASSAY_RESULT: > 100 µM
//
COMPOUND: COc1ccc(CCN=C2NC(=O)/C(=C/c3ccc4ncccc4c3)S2)cc1
MEASURED_ENDPOINT: TGI
ASSAY_RESULT: > 25 µM
//
COMPOUND: COc1ccc(C2[C@@H](c3ccccc3)C(=O)N2c2cc(OC)c(OC)c(OC)c2)cc1F (stereo not given in full)
MEASURED_ENDPOINT: TGI
ASSAY_RESULT: > 100 µM
